System: PolyAU double stranded RNA
Measurement protocol: Fluorescence intercalator displacement (FID) assay, SYBR-safe probe
Condition notes: 20 μM compound, 30° C., lower % = stronger binding
Would you mind labelling by % Normalised Fluorescence with polyAU RNA? At or over 70% is y, under is n.

smiles_code=CNC(=O)c1cc(NC(=O)c2cc(NC(=O)c3ccc(/C=C/c4cnc5ccccc5c4)cc3)cn2C)cn1C qualitative_label=y
smiles_code=C/N=C(\CCNC(=O)c1cc(NC(=O)c2cc(NC(=O)c3ccc(/C=C/c4ccc(N(C)C)cc4)nc3)cn2C)cn1C)NC qualitative_label=n
smiles_code=CN(C)c1ccc(/C=C/c2ccc(C(=O)Nc3c[nH]c(C(=O)Nc4cc(C(=O)NCCN5CCOCC5)n(C)c4)c3)cn2)cc1 qualitative_label=y
smiles_code=[H]/N=C(\CCNC(=O)c1cc(NC(=O)c2cc(NC(=O)c3ccc(C=Cc4ccc5nonc5c4)cc3)cn2C)cn1C)NCCN1CCN(C)CC1 qualitative_label=n
smiles_code=C/N=C(/CCNC(=O)c1cc(NC(=O)c2cc(NC(=O)c3ccc(/C=C/c4ccc5nonc5c4)cc3)cn2C)cn1C)NC qualitative_label=n

###

System: Staphylococcus aureus (ATCC 43300)
Measurement protocol: Antibacterial MIC, broth microdilution (CLSI)
Format: cell-based
Condition notes: Staphylococcus aureus, ATCC43300; read-out: MIC80 S. aureus
Test readout: MIC80

smiles_code=CC/N=C(/CCNC(=O)c1cc(NC(=O)c2cc(NC(=O)c3ccc(/C=C/c4ccc5nonc5c4)cc3)cn2C)cn1C)NCC value="25 to 100 µM"
smiles_code=CCC[N+](C)(C)CCNC(=O)c1cc(NC(=O)c2cc(NC(=O)c3ccc(/C=C/c4cnc5ccccc5c4)cc3)cn2C)cn1C value="< 5 µM"
smiles_code=CC/N=C(/CCNC(=O)c1cc(NC(=O)c2cc(NC(=O)c3ccc(/C=C/c4cnc5ccccc5c4)cc3)cn2C)cn1C)NCC value="25 to 100 µM"
smiles_code=CONC(=N)CCNC(=O)c1cc(NC(=O)c2cc(NC(=O)c3ccc(/C=C/c4cccc(OC)c4)cc3)cn2C)cn1C value="< 5 µM"
smiles_code=CCCCCCCCCCC[N+](C)(C)CCNC(=O)c1cc(NC(=O)c2cc(NC(=O)c3ccc(/C=C/c4cnc5ccccc5c4)cc3)cn2C)cn1C value="5 to 25 µM"
smiles_code=[H]/N=C(\CCNC(=O)c1cc(NC(=O)c2cc(NC(=O)c3ccc(C=Cc4ccc(C#N)cc4)cc3)cn2C)cn1C)NCC value="25 to 100 µM"
smiles_code=[H]/N=C(\CCNC(=O)c1cc(NC(=O)c2cc(NC(=O)c3ccc(C=Cc4ccc5nonc5c4)cc3)cn2C)cn1C)NCCC1CCOCC1 value="5 to 25 µM"
smiles_code=CN(C)C(=O)c1cc(NC(=O)c2cc(NC(=O)c3ccc(/C=C/c4cnc5ccccc5c4)cc3)cn2C)cn1C value="< 5 µM"
smiles_code=C/N=C(/CCNC(=O)c1cc(NC(=O)c2cc(NC(=O)c3ccc(/C=C/c4cccc(F)c4)cc3)cn2C)cn1C)NC value="5 to 25 µM"
smiles_code=CN(C)c1ccc(/C=C/c2ccc(C(=O)Nc3c[nH]c(C(=O)Nc4cc(C(=O)NCCN5CCOCC5)n(C)c4)c3)cn2)cc1 value="5 to 25 µM"
smiles_code=[H]/N=C(\CCNC(=O)c1cc(NC(=O)c2cc(NC(=O)c3ccc(C=Cc4ccc5nonc5c4)cc3)cn2C)cn1C)N1CCN(C)CC1 value="< 5 µM"
smiles_code=Cn1cc(NC(=O)c2ccc(/C=C/c3ccc4nonc4c3)cc2)cc1C(=O)Nc1c[nH]c(C(=O)NCCN2CCOCC2)c1 value="5 to 25 µM"
smiles_code=COCCNC(=N)CCNC(=O)c1cc(NC(=O)c2cc(NC(=O)c3ccc(/C=C/c4cnc5ccccc5c4)cc3)cn2C)cn1C value="< 5 µM"
smiles_code=CCCCCCCCCNC(=N)CCNC(=O)c1cc(NC(=O)c2cc(NC(=O)c3ccc(/C=C/c4cnc5ccccc5c4)cc3)cn2C)cn1C value="5 to 25 µM"
smiles_code=[H]/N=C(\CCNC(=O)c1cc(NC(=O)c2cc(NC(=O)c3ccc(C=Cc4ccc5nonc5c4)cc3)cn2C)cn1C)N1CCOCC1 value="5 to 25 µM"
smiles_code=Cn1cc(NC(=O)c2cc(NC(=O)c3ccc(/C=C/c4cnc5ccccc5c4)cc3)c[nH]2)cc1C(=O)NCCN1CCOCC1 value="< 5 µM"
smiles_code=Cn1cc(NC(=O)c2cc(NC(=O)c3ccc(/C=C/c4cnc5ccccc5c4)cc3)cn2C)cc1C(=O)NCCCCN1CCCCC1 value="5 to 25 µM"
smiles_code=Cn1cc(NC(=O)c2cc(NC(=O)c3ccc(/C=C/c4cnc5ccccc5c4)cc3)cn2C)cc1C(=O)NCCC(=N)NCCc1ccccc1 value="< 5 µM"
